FYI, the data here is from PubChem BioAssay (NCI).

Tested on: COLO 205 colon
ASSAY_COMMENT: NCI-60 one-dose screen, 48 h
MEASUREMENT_CONDITIONS: 10 µM
The panel holds about 83,000 compounds, 20% with a hit somewhere; the sample as a whole holds those more often. Activity calls are given as the source filed them. How the source made its calls: active means growth percent below 10; inactive means the rest.
Please reply with one of these outcomes: active, inactive

// below: answered molecules
[
  {
    "MOLECULE": "C[N+]1(CC2CO2)CCCCCC1 (stereo not given)",
    "LABEL": "inactive"
  },
  {
    "MOLECULE": "CCOC(=O)c1c(O)c2cc(-c3ccccc3)nc(OCC)c2c(=O)n1C",
    "LABEL": "inactive"
  },
  {
    "MOLECULE": "Clc1cc(Cl)c(Cl)c(-c2nc(-c3cccnc3)cs2)c1",
    "LABEL": "inactive"
  },
  {
    "MOLECULE": "O=C(C=P(c1ccccc1)(c1ccccc1)c1ccccc1)c1ccc(Br)cc1",
    "LABEL": "inactive"
  },
  {
    "MOLECULE": "CCCc1ccnc(NS(=O)(=O)c2ccc(N)cc2)n1",
    "LABEL": "inactive"
  }
]

In: Short answer needed: outcome of this test for O=C(/C=C/c1ccc(Cl)cc1)c1ccc(Br)cc1 ?
Out: inactive

In: Short answer needed: outcome of this test for COc1cccc(-c2nnc(COc3ccc(-c4nc5ccccc5[nH]4)cc3OC)o2)c1 ?
Out: inactive

In: Short answer needed: outcome of this test for COC(=O)c1cnc2c(c1)Oc1ccc(Cl)cc1-c1cc(C)nn1-2 ?
Out: inactive

In: Short answer needed: outcome of this test for O=C(CCCC(=O)N/N=C/c1cc(Cl)ccc1O)N/N=C\c1cc(Cl)ccc1O ?
Out: inactive

In: Short answer needed: outcome of this test for COc1cc(C2=Nc3c/c(=C\c4c(O)[nH]c5ccc(Cl)cc45)ccc3=N2)cc(OC)c1OC ?
Out: active

====

Test system: SK-MEL-2 melanoma
ASSAY_COMMENT: NCI-60 one-dose screen, 48 h (100 = growth as untreated, 0 = no growth, -100 = all killed)
MEASUREMENT_CONDITIONS: 10 µM
Procedure: Growth inhibition of the SK-MEL-2 human tumor cell line is measured as a screen for anti-cancer activity. Cells are grown in 96 well plates and exposed to the test compound for 48 hours. Compounds are tested at a single concentration, which is 10^-5 M for most compounds. The reported endpoint is percent growth (GI% or GIPRCNT), where numbers from 0 - 100% represent growth inhibition, and numbers from -100% - 0 represent cell death. For example, a value of 40 represents 60% growth inhibition. […]
Compounds without any hit were thinned out: in the full panel of roughly 83,000, 20% have a hit.
MEASURED_QUANTITY: growth (%)
Express it in %; write the number only.

[
  {
    "COMPOUND_STRUCTURE": "CCCCCCOc1ccc(/C=C/C(=O)c2ccc(B(O)O)cc2)cc1",
    "growth (%)": 78
  },
  {
    "COMPOUND_STRUCTURE": "O=C1/C(=C/c2ccc(O)cc2)CSc2ccc(Cl)cc21",
    "growth (%)": 97.8
  },
  {
    "COMPOUND_STRUCTURE": "N#Cc1c2c([nH]c(=O)c1C(N)=O)CCCCC2",
    "growth (%)": 98.7
  }
]

In: Look up growth for this compound: CS(=O)(=O)Nc1ccc([N+](=O)[O-])cc1Oc1ccccc1
Out: 125

In: Look up growth for this compound: CNCCCNCCCN1C(=O)c2ccc3c4c(ccc(c24)C1=O)C(=O)N(CCCNCc1ccccc1OC)C3=O
Out: -49.9

In: Look up growth for this compound: C[C@H](NC(=O)[C@@H]1CSSC[C@@H](NC(=O)Cc2nc3ccccc3cc2O)C(=O)NCC(=O)N1C)c1ccccc1
Out: 82.3

====

Test system: SK-MEL-2 melanoma
ASSAY_COMMENT: NCI-60 one-dose screen, 48 h (100 = growth as untreated, 0 = no growth, -100 = all killed)
MEASUREMENT_CONDITIONS: 10 µM
Compounds without any hit were thinned out: in the full panel of roughly 83,000, 20% have a hit.
MEASURED_QUANTITY: growth (%)
Express it in %; write the number only.

Example results:
[
  {
    "MOLECULE": "COc1ccc(C2CC(c3ccc(-c4ccccc4)cc3)=NN2c2ccc(S(N)(=O)=O)cc2)cc1 (centres undefined)",
    "TESTED_SYSTEM": "SK-MEL-2 melanoma",
    "UNIT_OF_MEASURE": "%",
    "growth": 90.3
  },
  {
    "MOLECULE": "Nc1ncncc1-c1ccc(F)cc1",
    "TESTED_SYSTEM": "SK-MEL-2 melanoma",
    "UNIT_OF_MEASURE": "%",
    "growth": 132
  }
]

In: Look up growth for this molecule: COc1cc([C@@H]2c3cc4c(cc3[C@H](SC(=N)N)[C@H]3COC(=O)[C@H]23)OCO4)cc(OC)c1OC
Out: 30.8

In: Look up growth for this molecule: CN(C)Cc1cccs1
Out: 103

====

Each entry below lists one item and its recorded growth value.
System: NCI-H226 lung
ASSAY_COMMENT: NCI-60 one-dose screen, 48 h (100 = growth as untreated, 0 = no growth, -100 = all killed)
MEASUREMENT_CONDITIONS: 10 µM
About 83,000 compounds went through this panel and 20% of them were active in at least one assay; those are over-represented in the sample as a whole.
Express it in %; write the number only.

[
  {
    "COMPOUND_STRUCTURE": "Cc1cc(C)c2c(Nc3ncnc4c3sc3nc(C)cc(C)c34)n[nH]c2n1",
    "UNIT_OF_MEASURE": "%",
    "growth": 93.8
  }
]

In: Under NCI-H226 lung: growth value of CN(C)CCCN1c2ccccc2Sc2ccc(C(F)(F)F)cc21 ?
Out: 54.7

In: Under NCI-H226 lung: growth value of CCCCCCCCCCCCCCCCCBr ?
Out: 94.9

In: Under NCI-H226 lung: growth value of Nc1c(C(=O)Nc2ccccc2F)sc2nc3c(cc12)C(=O)CCC3 ?
Out: 75.1

====

Each entry below lists one item and its recorded growth value.
Test system: 786-0 renal
ASSAY_COMMENT: NCI-60 one-dose screen, 48 h (100 = growth as untreated, 0 = no growth, -100 = all killed)
MEASUREMENT_CONDITIONS: 10 µM
About 83,000 compounds went through this panel and 20% of them were active in at least one assay; those are over-represented in the sample as a whole. Active and inactive are the calls of the source. How the source made its calls: active means growth percent below 10; inactive means the rest.

Example results:
[
  {
    "COMPOUND_STRUCTURE": "COc1ccc(-c2nnc(SC/C(=N\\O)c3ccccc3)o2)cc1",
    "growth": "97.2% (inactive)"
  },
  {
    "COMPOUND_STRUCTURE": "COc1ccc(-c2nnc(SCC(=O)c3ccccc3)o2)cc1",
    "growth": "79.4% (inactive)"
  },
  {
    "COMPOUND_STRUCTURE": "CCN1CCN(c2ccc(Nc3ncnc4c3nnn4CCc3cc(OC)cc(OC)c3)cc2)CC1",
    "growth": "99.6% (inactive)"
  },
  {
    "COMPOUND_STRUCTURE": "Cc1[nH]nc2c(=S)[nH]c(=O)[nH]c12",
    "growth": "97.3% (inactive)"
  }
]

In: Look up growth for this molecule: Clc1ccc(-c2nc(-c3cccs3)cn3ccnc23)cc1
Out: 99.8% (inactive)

In: Look up growth for this molecule: CCOC(=O)C(=O)Cc1cccnn1
Out: 96.4% (inactive)

In: Look up growth for this molecule: COc1cc(-c2nc3ccc(C)cc3[nH]2)ccc1OCC(=O)N=Nc1c(O)[nH]c2ccccc12
Out: -93.5% (active)

In: Look up growth for this molecule: O=NN(CC(=O)N/N=C/C=C\c1ccccc1)CC(=O)N/N=C/C=C/c1ccccc1
Out: 110% (inactive)

In: Look up growth for this molecule: Cc1nc2sccn2c1-c1csc(Nc2cccc(Cl)c2C)n1
Out: 63.3% (inactive)

In: Look up growth for this molecule: S=c1c2ncccc2c(-c2ccccn2)nn1Cc1ccccn1
Out: 96.9% (inactive)

In: Look up growth for this molecule: CN(C)Cc1cccs1
Out: 103% (inactive)

====

Tested on: HCC-2998 colon
ASSAY_COMMENT: NCI-60 one-dose screen, 48 h (100 = growth as untreated, 0 = no growth, -100 = all killed)
MEASUREMENT_CONDITIONS: 10 µM
About 83,000 compounds went through this panel and 20% of them were active in at least one assay; those are over-represented in the sample as a whole.
MEASURED_QUANTITY: growth (%)
Express it in %; write the number only.

Example results:
[
  {
    "COMPOUND": "CCOC(=O)Cn1nnc(-c2ccc(OCc3ccccc3F)cc2)n1",
    "UNIT_OF_MEASURE": "%",
    "NUMERIC_VALUE": 100
  },
  {
    "COMPOUND": "C=C1C(=O)O[C@H]2[C@H]1CC/C(COC(=O)OCCCCCOC(=O)OC/C1=C/CC[C@@]3(C)O[C@H]3[C@H]3OC(=O)C(=C)[C@@H]3CC1)=C\\CC[C@@]1(C)O[C@@H]21",
    "UNIT_OF_MEASURE": "%",
    "NUMERIC_VALUE": -60.8
  },
  {
    "COMPOUND": "O=C1CC[C@@H](C(=O)N[C@H]2CSSC[C@@H](C(=O)N/C=C/c3ccc(O)cc3)NC(=O)[C@H](Cc3ccccc3)NC(=O)[C@@H]3CCCN3C(=O)[C@@H]3CCCN3C2=O)N1",
    "UNIT_OF_MEASURE": "%",
    "NUMERIC_VALUE": 98.9
  },
  {
    "COMPOUND": "O=C(O)CCCCSCCCCC(=O)O",
    "UNIT_OF_MEASURE": "%",
    "NUMERIC_VALUE": 106
  }
]

The record that follows has no growth shown yet.
In: Look up growth for this compound: O=[N+]([O-])C1CC2C=CC1C2 (stereo not given)
Out: 102
